The reported numbers originate from PubChem BioAssay (EPA / NIEHS).

# protocol_summary: BSK_SAg_Proliferation: Cell Proliferation Assessment in the BioMAP Diversity Plus: SAg Assay (AID 2283095);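 further: relative cell number as total protein by SRB absorbance in sub-confluent culture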
# condition_description: primary human HUVEC with PBMC
Calls of active or inactive are those of the source. How the source made its calls: active means hit-call score of the fitted dose curve at least 0.9, where 1 is the maximum; inactive means score below 0.9.
Hi! Could you answer with just one of these? True = active, False = inactive

Query :: What is the recorded call for this compound in the test? Cc1cc(C)nc(NC(=O)NS(=O)(=O)c2ccccc2C(=O)OC2COC2)n1
Result :: False

====

# protocol_summary: ATG_TCF_b_cat_CIS: Attagene CIS-FACTORIAL HepG2 Assay for human T-Cell-Factor with beta-catenin (TCF/b-cat) (AID 2282965)
# condition_description: HepG2 TCF/beta-catenin cis-reporter transcription, actives raise or lower the signal
# Protocol: ATG_CIS is a cell-based, multiplexed-readout assay that uses HepG2, a human liver cell line, with measurements taken at 24 hours after chemical dosing in a 24-well plate.ATG_TCF_b_cat_CIS is one of 52 assay component(s) measured or calculated from the ATG_CIS assay. […] This assay endpoint, ATG_TCF_b_cat_CIS, was analyzed with bidirectional fitting relative to DMSO as the negative control and baseline of activity. […]
The source made the active and inactive calls. The calls were made as follows: active = hit-call score of the fitted dose curve at least 0.9, where 1 is the maximum; inactive = score below 0.9.
reported_endpoint: outcome

Reference set, count: 6
CNC(=O)Oc1ccccc1OC(C)C
inactive
COP(=S)(OC)Oc1ccc([N+](=O)[O-])cc1
inactive
N#CN
inactive
N#Cc1c(Cl)c(Cl)c(Cl)c(C#N)c1Cl
inactive
COC(=O)c1ccccc1S(=O)(=O)NC(=O)Nc1nc(C)nc(OC)n1
inactive
O=C(O)COc1ccc(Cl)cc1Cl
inactive

Dear colleague, could you send me outcome for each of the items below? Thanks.
1. C[C@H]1[C@H](c2ccc(Cl)cc2)SC(=O)N1C(=O)NC1CCCCC1
2. O=C1c2ccccc2C(=O)N1SC(Cl)(Cl)Cl
3. O=C(Nc1ccccc1)Nc1cnns1
4. Cc1cc(C)nc(NC(=O)NS(=O)(=O)c2ccccc2C(=O)OC2COC2)n1
5. COC(=O)c1ccccc1S(=O)(=O)NC(=O)N(C)c1nc(C)nc(OC)n1
6. O=C(NC(=O)c1c(F)cccc1F)Nc1ccc(OC(F)(F)C(F)OC(F)(F)F)c(Cl)c1 (configuration not stated)

Result ::
1: inactive; 2: inactive; 3: inactive; 4: inactive; 5: inactive; 6: inactive
